Source of measurements: patent US20110243928A1

# assay target: T1, E. coli-expressed recombinant human IL-13 (human, UniProt P35225 35-146)
# T1 construct: Untagged E. coli-expressed human IL-13; also called hIL-13; human IL13 (CA)
# T1 sequence (P35225 other isoform, or with tags, fused parts or gaps): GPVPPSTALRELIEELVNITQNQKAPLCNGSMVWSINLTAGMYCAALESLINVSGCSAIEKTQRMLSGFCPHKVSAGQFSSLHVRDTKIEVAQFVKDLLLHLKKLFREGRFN
# measurement notes: BIAcore analysis 1, antibody captured, IL-13 in solution
measured attribute: Kd
Write the figure, then the unit, nothing else.

Below, 3 binders whose answers are already recorded.
chimaeric 6A1 (antibody, human IgG1, V domains shown, Parent murine 6A1 V regions on human IgG1/k wild type C regions, expressed in CHO cells; also called 6A1c; 6A1 chimaeric antibody) VH: EIQLQQSVAELVRPGASVRLSCTASGFYIKDTYMHWVIQRPEQGLEWIGTIDPANGNTKYVPKFQGKATITADTSSNTAYLRLSSLTSEDTAIYYCARSIYDDYHYDDYYAMDYWGQGTSVTVSS VL: DVLMTQTPLSLPVSLGDQASISCRSSQNIVHINGNTYLEWYLQKPGQSPKLLIYKISDRFSGVPDRFSGSGSGTDFTLKISRVEAEDLGVYYCFQGSHVPWTFGGGTKLEIK :: 0.043 nM
L2+A1 (antibody, human IgG1, kappa, V domains shown, Humanised 6A1, VH construct A1 and VL construct L2; also called A1L2) VH: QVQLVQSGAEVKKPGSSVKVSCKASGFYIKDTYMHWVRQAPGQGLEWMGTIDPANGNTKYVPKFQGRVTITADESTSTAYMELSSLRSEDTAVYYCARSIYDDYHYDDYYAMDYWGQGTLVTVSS VL: DIVMTQSPLSLPVTPGEPASISCRSSQNIVHINGNTYLEWYLQKPGQSPRLLIYKISDRFSGVPDRFSGSGSGTDFTLKISRVEADDVGVYYCFQGSHVPWTFGQGTKLEIKR :: 0.31 nM
L1+A1 (antibody, human IgG1, kappa, V domains shown, Humanised 6A1, VH construct A1 and VL construct L1, human gamma1 wild type / kappa constant regions; also called A1L1; humanised anti-IL-13 mAb L1+A1) VH: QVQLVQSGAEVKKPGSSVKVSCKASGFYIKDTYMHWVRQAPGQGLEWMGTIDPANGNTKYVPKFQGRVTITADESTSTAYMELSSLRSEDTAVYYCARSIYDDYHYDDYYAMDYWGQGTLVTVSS VL: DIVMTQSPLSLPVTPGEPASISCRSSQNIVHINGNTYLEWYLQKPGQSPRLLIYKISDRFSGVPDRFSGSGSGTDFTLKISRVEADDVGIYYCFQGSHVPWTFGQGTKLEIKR :: 0.3 nM

Let us move to another entry and its Kd.
Using the record for monoclonal antibody 6A1 (antibody, IgG1, V domains shown, also called 6A1 parental mAb; parental mouse mAb 6A1) VH: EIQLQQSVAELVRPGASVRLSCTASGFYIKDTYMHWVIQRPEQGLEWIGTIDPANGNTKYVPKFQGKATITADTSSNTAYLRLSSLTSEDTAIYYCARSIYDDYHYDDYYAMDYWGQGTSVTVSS VL: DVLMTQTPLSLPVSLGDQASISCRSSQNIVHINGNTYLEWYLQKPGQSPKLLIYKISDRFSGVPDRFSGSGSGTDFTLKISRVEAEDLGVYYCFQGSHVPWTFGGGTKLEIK , state its measured Kd.
0.035 nM
